Reference source for all entries: the supplement of paper PMC6757056

B1: library; a variant is named by its letters at N, in order (parent)
chain: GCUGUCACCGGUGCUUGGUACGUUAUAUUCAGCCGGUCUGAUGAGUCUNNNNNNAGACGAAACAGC

- Variants of: B1
- assay details: FACS-Seq fitted mean relative fluorescence mCherry/BFP with ligand (log10 relative fluorescence); HEK293T overexpressing SLC46A1; ligand concentration (+) FACS-Seq: 6 mM; higher = higher reporter protein expression
- condition parameters: with (6R,S)-folinic acid; ligand present: yes
result type: FACS-Seq fitted mean (log10)
// return a plain number; no unit text

Below, 4 variants whose answers are already recorded.
GCUGUCACCGGUGCUUGGUACGUUAUAUUCAGCCGGUCUGAUGAGUCUAGCCGUAGACGAAACAGC [AGCCGU] :: 0.342
GCUGUCACCGGUGCUUGGUACGUUAUAUUCAGCCGGUCUGAUGAGUCUUACUAUAGACGAAACAGC [UACUAU] :: 0.489
GCUGUCACCGGUGCUUGGUACGUUAUAUUCAGCCGGUCUGAUGAGUCUUGAACUAGACGAAACAGC [UGAACU] :: 0.35
GCUGUCACCGGUGCUUGGUACGUUAUAUUCAGCCGGUCUGAUGAGUCUGAUAUGAGACGAAACAGC [GAUAUG] :: 0.0285

Input line: Supply recorded FACS-Seq fitted mean (log10) for GCUGUCACCGGUGCUUGGUACGUUAUAUUCAGCCGGUCUGAUGAGUCUAGAUUCAGACGAAACAGC [AGAUUC] here.
Output line: 0.54

Input line: Supply recorded FACS-Seq fitted mean (log10) for GCUGUCACCGGUGCUUGGUACGUUAUAUUCAGCCGGUCUGAUGAGUCUGGAAGAAGACGAAACAGC [GGAAGA] here.
Output line: 0.239

Input line: Supply recorded FACS-Seq fitted mean (log10) for GCUGUCACCGGUGCUUGGUACGUUAUAUUCAGCCGGUCUGAUGAGUCUGAAGCUAGACGAAACAGC [GAAGCU] here.
Output line: 0.0358
